Readout Type: melting point

Illustrative cases are given below, each with its answer.
Query: Return reported melting point; argument: `COc1ccc(CCNC(=O)Nc2cc(C(C)=O)c(O)cc2OC)cc1`
Reply: 180 to 181 °C

Query: Return reported melting point; argument: COc1cc(O)c(C(C)=O)cc1NC(=O)NCCc1ccc(F)cc1 [Compound D2]
Reply: 224 to 225 °C

Query: Return reported melting point; argument: `COc1cc(O)c(C(C)=O)cc1NC(=O)Nc1cccc(C)c1`
Reply: 209 to 210 °C

For every item in the list below, what is its measured melting point?
1. CONC(=O)Nc1cc(C(C)=O)c(O)cc1OC
2. CCNC(=O)Nc1cc(C(C)=O)c(O)cc1OC
3. COc1ccccc1NC(=O)Nc1cc(C(C)=O)c(O)cc1OC
4. CNC(=O)Nc1cc(C(C)=O)c(O)cc1OC
5. COc1cc(O)c(C(C)=O)cc1NC(=O)NCc1ccco1

Reply:
1. 176 to 177 °C
2. 211 to 212 °C
3. 228 to 229 °C
4. 211 to 213 °C
5. 231 to 232 °C

For every item in the list below, what is its measured melting point?
1. CCN(CC)C(=O)Nc1cc(C(C)=O)c(O)cc1OC
2. COc1cc(O)c(C(C)=O)cc1NC(=O)N1CCCC1
3. COc1cc(O)c(C(C)=O)cc1NC(=O)NCC(F)(F)F

Reply:
132 to 134 °C
118 to 120 °C
232 to 234 °C

For every item in the list below, what is its measured melting point?
1. COc1cc(O)c(C(C)=O)cc1NC(=O)Nc1ccccc1C
2. COc1cc(O)c(C(C)=O)cc1NC(=O)N1CCN(C)CC1

Reply:
238 to 239 °C
141 to 142 °C

The measured values listed here are drawn from paper PMC8890542.
